Test system: P388 leukemia ip, CD2F1 mice, survival T/C
Experiment: NCI In Vivo Anticancer Drug Screen. Data for tumor model P388 Leukemia (intraperitoneal) in CD2F1 (CDF1) mice
Conditions: endpoint: median survival time; dose: 400.0 mg/kg/injection; schedule: Q04DX003 (ip); vehicle: saline with Tween-80
Inconclusive results and toxic doses are left out. How the source made its calls: active means survival T/C of 150% or more; inactive means T/C below 125% in these data.
Give your call using only these classes: 1 (active), -1 (inactive)

Q. What classification did CC1=NN(C(=O)c2cccnc2)C(=O)C1N=Nc1ccc(S(=O)(=O)N=C(N)N)cc1 (stereo unspecified) end up with in this test?
A. -1

Q. Can you check "CC=C(/C(=C/C)c1ccc(O)cc1)c1ccc(O)cc1" next?
A. -1

Q. Similarly, "CCOc1ccc2cc(S(=O)(=O)O)ccc2c1N" ?
A. -1

Q. Note, next up: "C=CCn1nc(-c2ccccc2)c(-c2ccccc2)n1"
A. -1

Q. Same lookup for CC(CNC(=O)CCOS(C)(=O)=O)NC(=O)CCOS(C)(=O)=O (stereo unspecified) , please.
A. 1

Q. Same thing, different compound: "NC(=O)CC1(C(=O)O)c2ccccc2-c2ccccc21"
A. -1

Q. Now the compound COc1cc(CC2c3cc(OC)c(OC)cc3CCN2C)c(Oc2cc3c(cc2OC)-c2c(O)c(OC)cc4c2C(C3)N(C)CC4)cc1OC (stereo unspecified)
A. -1

Q. Now the compound "COC(=O)/C=C(/C(=O)OC)N(C)Cc1ccccc1"
A. -1

Q. Continue with "CNC(=O)Nc1cc2ccccc2o1"
A. -1

Q. Nc1ncnc2c1ncn2C1OC(CO)C(O)C1O (stereo unspecified) , same question.
A. -1

Q. Subsequent entry: CN(C)c1nc(OC2C(C(O)CO)OC3OC(C)(C)OC32)nc(N(C)C)n1 (stereo unspecified)
A. -1

FYI, the data here is from PubChem BioAssay AID330.
